Here, each record is paired with measured Ki data.
Target: human D2-long dopamine receptor (Homo sapiens (Human))
Test: Radioligand binding (125I-IABN competition), D2
Settings: HEK cell membranes expressing human D2-long
Just the number please, in µM, no unit attached.

Q) Supply measured Ki of O=C(NCCCCN1CCN(c2cccc(C(F)(F)F)c2)CC1)N1CCN(c2ccccc2)CC1 [Compound 2] in your reply.
A) 0.303

Q) Supply measured Ki of CC(C)(C)c1nc(N2CCN(CCCCNC(=O)N3CCN(c4cccc(-c5ccccc5)c4)CC3)CC2)cc(C(F)(F)F)n1 [Compound 44] in your reply.
A) 1.11

Q) Supply measured Ki of CC(C)(C)c1nc(N2CCN(CCCCNC(=O)N3CCN(c4cccc(Cl)c4)CC3)CC2)cc(C(F)(F)F)n1 [Compound 15] in your reply.
A) 0.582

Q) Supply measured Ki of CC(C)(C)c1nc(N2CCN(CCCCNC(=O)N3CCN(c4cccc(C(F)(F)F)c4)CC3)CC2)cc(C(F)(F)F)n1 [Compound 27] in your reply.
A) 1.05

* * *

Target: UniProtKB P35462
Assay: Whole Cell Adenylyl Cyclase Assay, D3
Assay type: cell-based
Conditions: inhibition of forskolin (100 μM) stimulated cAMP, normalized to quinpirole; compound conc ≥10× Ki (per compound); mean ± S.E.M.
recorded.metric: D3 Cyclase % Inhibition Normalized

- molecule: "CC(C)(C)c1nc(N2CCN(CCCCNC(=O)N3Cc4ccccc4C3)CC2)cc(C(F)(F)F)n1 [Compound 39]"
  test.system: "UniProtKB P35462"
  D3 Cyclase % Inhibition Normalized: "19.8 ± 6.7%"
- molecule: "CC(C)(C)c1nc(N2CCN(CCCCNC(=O)N3CCc4c([nH]c5ccccc45)C3)CC2)cc(C(F)(F)F)n1 [Compound 55]"
  test.system: "UniProtKB P35462"
  D3 Cyclase % Inhibition Normalized: "61.7 ± 6.4%"
- molecule: "CC(C)(C)c1nc(N2CCN(CCCCNC(=O)C3CCC(c4ccccc4)CC3)CC2)cc(C(F)(F)F)n1 (stereo not shown) [Compound 103]"
  test.system: "UniProtKB P35462"
  D3 Cyclase % Inhibition Normalized: "51.6 ± 13.4%"

Now let's try a different one.
Q) Provide the reported D3 Cyclase % Inhibition Normalized (system: UniProtKB P35462) for O=C(NCCCCN1CCN(c2ccccc2)CC1)N1CCN(c2ccccc2)CC1 [Compound 1]
A) 48.3 ± 9.4%

* * *

Here, each record is paired with measured D2 Cyclase % Inhibition Normalized data.
Target: human D2 dopamine receptors (Homo sapiens (Human), UniProt P14416)
Assay: Whole Cell Adenylyl Cyclase Assay, D2
Type: cell-based
Details: inhibition of forskolin (100 μM) stimulated cAMP, normalized to quinpirole; compound conc ≥10× Ki (per compound); mean ± S.E.M.
Procedure: The intrinsic activity of the compounds was evaluated by determining their ability to inhibit forskolin-dependent (100 μM) stimulation of adenylyl cyclase activity using a whole cell assay. A whole cell-cyclic AMP accumulation assay was performed with stably transfected HEK cells expressing human D2 or D3 dopamine receptors. […] The final yield of [^3H]-cyclic AMP is corrected for column recovery of unlabeled cyclic AMP determined spectrophotometrically (OD259). […]
Just so you know, I need the unit written after the number.

- mol: "CC(C)(C)c1nc(N2CCN(CCCCNC(=O)N3CCN(c4ccccc4)CC3)CC2)cc(C(F)(F)F)n1"
  D2 Cyclase % Inhibition Normalized: "−4.8 ± 4.1%"
- mol: "Cc1cc(N2CCN(CCCCNC(=O)N3CCN(c4ccccc4)CC3)CC2)nc(C(F)(F)F)n1"
  D2 Cyclase % Inhibition Normalized: "30.4 ± 14.6%"

Q) Supply measured D2 Cyclase % Inhibition Normalized of CC(C)(C)c1nc(N2CCN(CCCCNC(=O)N3CCN(c4cccnc4)CC3)CC2)cc(C(F)(F)F)n1 in your reply.
A) 6.1 ± 7.5%

Q) Supply measured D2 Cyclase % Inhibition Normalized of O=C(NCCCCN1CCN(c2ccnc3ccccc23)CC1)N1CCN(c2ccccc2)CC1 in your reply.
A) 24.4 ± 3.8%

Q) Supply measured D2 Cyclase % Inhibition Normalized of CN(C)Cc1c(C(=O)NCCCCN2CCN(c3cc(C(F)(F)F)nc(C(C)(C)C)n3)CC2)nc2ccccn12 in your reply.
A) 8.9 ± 5.0%

Q) Supply measured D2 Cyclase % Inhibition Normalized of O=C(NCCCCN1CCN(c2ccccc2)CC1)N1CCN(c2ccccc2)CC1 in your reply.
A) 91.4 ± 2.4%

Q) Supply measured D2 Cyclase % Inhibition Normalized of CC(C)(C)c1nc(N2CCN(CCCCNC(=O)N3CCN(c4cccc(C#N)c4)CC3)CC2)cc(C(F)(F)F)n1 in your reply.
A) 34.0 ± 9.1%

* * *

Target: human D2 receptors (Homo sapiens (Human))
Sequence (P14416 whole entry): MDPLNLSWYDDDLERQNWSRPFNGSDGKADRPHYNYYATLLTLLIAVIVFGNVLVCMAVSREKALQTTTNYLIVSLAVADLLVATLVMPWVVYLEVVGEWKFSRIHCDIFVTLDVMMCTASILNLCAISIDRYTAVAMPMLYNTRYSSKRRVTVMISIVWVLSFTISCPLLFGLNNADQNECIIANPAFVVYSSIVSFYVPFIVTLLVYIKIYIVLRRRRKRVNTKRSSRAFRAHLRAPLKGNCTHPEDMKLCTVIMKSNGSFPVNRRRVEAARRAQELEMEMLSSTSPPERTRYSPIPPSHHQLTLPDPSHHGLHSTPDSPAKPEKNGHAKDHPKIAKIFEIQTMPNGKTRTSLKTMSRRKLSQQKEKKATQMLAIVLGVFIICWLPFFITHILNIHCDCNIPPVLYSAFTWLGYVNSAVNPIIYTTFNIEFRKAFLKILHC
Assay: D2 Mitogenesis Functional Assay (3H-thymidine uptake, CHOp-D2 cells)
Format: cell-based
Conditions: read-out: D2 Antagonist IC50
pIC50: −log10 of the molar value.
Threshold check on pIC50: at or above 7 gives Criterion met, strictly below gives Criterion not met.

- compound: "CC(C)(C)c1nc(N2CCN(CCCCNC(=O)N3CCN(c4ncccn4)CC3)CC2)cc(C(F)(F)F)n1 [Compound 32]"
  class.assignment: "Criterion not met"
- compound: "CC(C)(C)c1nc(N2CCN(CCCCNC(=O)N3CCN(c4ccccc4)CC3)CC2)cc(C(F)(F)F)n1 [Compound 8]"
  class.assignment: "Criterion not met"
- compound: "O=C(NCCCCN1CCN(c2cccc(Cl)c2Cl)CC1)N1CCN(c2ccccc2)CC1 [Compound 3]"
  class.assignment: "Criterion met"
- compound: "O=C(NCCCCN1CCN(c2cccc(Cl)c2Cl)CC1)N1CCC(c2ccccc2)CC1 [Compound 47]"
  class.assignment: "Criterion not met"

Consider the record given below.
Q) # bool: pIC50 of CC(C)(C)c1nc(N2CCN(CCCCNC(=O)N3CCN(c4ccccn4)CC3)CC2)cc(C(F)(F)F)n1 [Compound 29] >= 7
A) Criterion not met

* * *

Target: human D2 receptors (Homo sapiens (Human))
Test: D2 Mitogenesis Functional Assay (3H-thymidine uptake, CHOp-D2 cells)
Conditions: CHOp-D2 cells, stimulation of mitogenesis; read-out: D2 Agonist EC50
recorded.metric: EC50

- compound: "CC(C)(C)c1nc(N2CCN(CCCCNC(=O)N3CCN(c4ccccn4)CC3)CC2)cc(C(F)(F)F)n1 [Compound 29]"
  recorded.metric: "EC50"
  value.observed: "> 10 µM"
- compound: "CC(C)(C)c1nc(N2CCN(CCCCNC(=O)N3CCN(c4ncccn4)CC3)CC2)cc(C(F)(F)F)n1 [Compound 32]"
  recorded.metric: "EC50"
  value.observed: "> 10 µM"

Now let's try a different one.
Q) Supply measured EC50 of CC(C)(C)c1nc(N2CCN(CCCCNC(=O)N3CCN(c4ccccc4)CC3)CC2)cc(C(F)(F)F)n1 [Compound 8] in your reply.
A) > 10 µM

* * *

Target: human D3 dopamine receptor (Homo sapiens (Human), UniProt P35462)
Sequence (P35462 whole entry): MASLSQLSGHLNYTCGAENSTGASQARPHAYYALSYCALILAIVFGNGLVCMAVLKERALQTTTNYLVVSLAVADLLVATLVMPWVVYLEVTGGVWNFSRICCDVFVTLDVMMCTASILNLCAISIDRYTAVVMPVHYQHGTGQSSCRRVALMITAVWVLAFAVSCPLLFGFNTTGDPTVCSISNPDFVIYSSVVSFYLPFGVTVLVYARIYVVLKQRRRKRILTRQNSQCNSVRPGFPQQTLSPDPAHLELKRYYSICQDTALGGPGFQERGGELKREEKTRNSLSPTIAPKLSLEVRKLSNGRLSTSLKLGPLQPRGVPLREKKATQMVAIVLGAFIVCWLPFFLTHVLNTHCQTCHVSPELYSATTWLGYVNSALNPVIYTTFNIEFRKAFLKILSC
Experiment: Radioligand binding (125I-IABN competition), D3
Conditions: calculated D2 Ki/D3 Ki
recorded.metric: D2/D3 (D3 selectivity ratio, D2 Ki/D3 Ki)
Answer with a bare number; do not write a unit.

Take a look at these entries with their results.
- mol: "O=C(NCCCCN1CCN(c2ncnc3ccccc23)CC1)c1cn2ccccc2n1"
  value.observed: 4
- mol: "CC(C)(C)c1nc(N2CCN(CCCCNC(=O)N3CCN(c4ccc(C#N)cc4)CC3)CC2)cc(C(F)(F)F)n1"
  value.observed: 18
- mol: "CC(C)(C)c1nc(N2CCN(CCCCNC(=O)N3CCN(S(=O)(=O)c4ccccc4)CC3)CC2)cc(C(F)(F)F)n1"
  value.observed: 7
- mol: "CC(C)(C)c1nc(N2CCN(CCCCNC(=O)N3CCN(c4ccccc4)CC3)CC2)cc(C(F)(F)F)n1"
  value.observed: 174
- mol: "CC(C)(C)c1nc(N2CCN(CCCCNC(=O)N3CCc4ccccc43)CC2)cc(C(F)(F)F)n1"
  value.observed: 10

Q) Supply measured D2/D3 (D3 selectivity ratio, D2 Ki/D3 Ki) of Cc1cccc(N2CCN(C(=O)NCCCCN3CCN(c4cc(C(F)(F)F)nc(C(C)(C)C)n4)CC3)CC2)c1 in your reply.
A) 38

Q) Supply measured D2/D3 (D3 selectivity ratio, D2 Ki/D3 Ki) of CC(C)(C)c1nc(N2CCN(CCCCNC(=O)N3CCC(C#N)(c4ccccc4)CC3)CC2)cc(C(F)(F)F)n1 in your reply.
A) 52

Q) Supply measured D2/D3 (D3 selectivity ratio, D2 Ki/D3 Ki) of CC(C)(C)c1nc(N2CCN(CCCCNC(=O)C3CCN(c4ccc(C(F)(F)F)cn4)CC3)CC2)cc(C(F)(F)F)n1 in your reply.
A) 11

Q) Supply measured D2/D3 (D3 selectivity ratio, D2 Ki/D3 Ki) of CC(C)(C)c1nc(N2CCN(CCCCNC(=O)c3cn4cccnc4n3)CC2)cc(C(F)(F)F)n1 in your reply.
A) 37

Q) Supply measured D2/D3 (D3 selectivity ratio, D2 Ki/D3 Ki) of CC(C)(C)c1nc(N2CCN(CCCCNC(=O)N3CCN(Cc4cccc(C#N)c4)CC3)CC2)cc(C(F)(F)F)n1 in your reply.
A) 10

Q) Supply measured D2/D3 (D3 selectivity ratio, D2 Ki/D3 Ki) of CC(C)(C)c1cc(N2CCN(CCCCNC(=O)N3CCc4[nH]c5ccccc5c4C3)CC2)nc(C(C)(C)C)n1 in your reply.
A) 33

Q) Supply measured D2/D3 (D3 selectivity ratio, D2 Ki/D3 Ki) of COc1cccc(N2CCN(C(=O)NCCCCN3CCN(c4cc(C(F)(F)F)nc(C(C)(C)C)n4)CC3)CC2)c1 in your reply.
A) 58

Q) Supply measured D2/D3 (D3 selectivity ratio, D2 Ki/D3 Ki) of O=C(NCCCCN1CCN(c2ccccc2)CC1)N1CCN(c2ccccc2)CC1 in your reply.
A) 62
